Data origin, for the record: patent US12115178B2

System: neutrophil
Assay: Neutrophil chemokine production assay
Format: cell-based, human
Conditions: 500.0 μM, 12 h
assay.endpoint: % MIP-1β (DMSO + LPS = 100%)

% MIP-1β (DMSO + LPS = 100%) measured on CCCC(=O)O [butyrate] = +++ (+++ = <50% Vehicle)

Given item CC(=O)O [acetate] , the value recorded as its % MIP-1β (DMSO + LPS = 100%) is + (+ = <90% Vehicle)

Briefly, % MIP-1β (DMSO + LPS = 100%) measured for CCC(=O)O [propionate] : +++ (+++ = <50% Vehicle)

Data point: CC(O)CCO (centres unmarked) ; % MIP-1β (DMSO + LPS = 100%) = + (+ = <90% Vehicle)
